experiment: Inhibition of Trypanosoma Trypanothione reductase in presence of NADPH by DTNB based colorimetric assay
Assay Endpoint: pIC50
// pIC50 is dimensionless: -log10 of concentration (M)

What value of pIC50 has been recorded for this entry: Clc1ccc2c(c1)N(CCCN1CCN(CCCc3ccccc3)CC1)c1ccccc1S2
6.12

---

assay: Selectivity index, ratio of IC50 for cytotoxicity against African green monkey Vero cells to IC50 for antitrypanosomal activity against Trypanosoma brucei rhodesiense STI B900; format: toxicity, cell-based; settings: read-out: Ratio IC50
Sorting guide: entries reporting selectivity ratio beneath 8 go in the satisfied pile, the rest go in the not satisfied pile.

For orientation, consider the following solved cases.
CN1Cc2ccc(OCc3ccccc3)cc2[C@@H](OCc2ccccc2)C1    not satisfied
CN1Cc2ccc(O[Si](c3ccccc3)(c3ccccc3)C(C)(C)C)cc2[C@@H](O)C1    satisfied
CN1CCc2cc(-c3ccc(-c4ccccc4)cc3)ccc2C1    not satisfied
COc1cccc(-c2cccc(COc3ccc4c(c3)[C@@H](O)CN(C)C4)c2)c1    not satisfied
CN1CCc2cc(OCCC3CCCCC3)ccc2C1    not satisfied
OC1CNCc2c(OCc3cccc(Br)c3)cccc21 (stereo unspecified)    not satisfied

From here, focus on the item given below.
# TODO verify selectivity ratio < 8 strictly for this compound: COc1cccc(-c2ccc(COc3ccc4c(c3)[C@@H](O)CN(C)C4)cc2)c1
satisfied

---

experiment: Selectivity index, ratio of IC50 for cytotoxicity against African green monkey Vero cells to IC50 for antitrypanosomal activity against Trypanosoma brucei rhodesiense STI B900; assay type: toxicity, cell-based; details: read-out: Ratio IC50
Assay Endpoint: selectivity ratio
Just the number, please, no unit attached.

OC1CN(Cc2ccccc2)Cc2ccc(OCc3ccc(-c4ccccc4)cc3)cc21 (configuration not stated)    5.5
CN1Cc2ccc(OCc3ccc(-c4ccc(Cl)cc4)cc3)cc2[C@@H](O)C1    77.5
CN1Cc2ccc(OCc3ccc(-c4ccc5ccccc5c4)cc3)cc2[C@@H](O)C1    1.3
CCCCCCCCCCCCOc1ccc2c(c1)[C@@H](O)CN(C)C2    7.6
CN1Cc2ccc(OCc3ccc(-c4cccc(Cl)c4)cc3)cc2[C@@H](O)C1    9.1

What value of selectivity ratio has been recorded for this entry: OC1CNCc2ccc(OCc3ccc(-c4ccccc4)cc3)cc21 (configuration not stated)
83.2

What value of selectivity ratio has been recorded for this entry: OC1CN(Cc2ccccc2)Cc2ccc(OCc3ccccc3)cc21 (configuration not stated)
3.8

What value of selectivity ratio has been recorded for this entry: CN1Cc2c(OCCC3CCCCC3)cccc2[C@@H](O)C1
4.8

What value of selectivity ratio has been recorded for this entry: CN1Cc2ccc(OCc3ccc(-c4ccccc4)cc3)cc2[C@H](OC(=O)c2ccccc2)C1
0.8

What value of selectivity ratio has been recorded for this entry: CN1Cc2ccc(OCc3ccc(Br)cc3)cc2[C@@H](O)C1
14.8

---

assay: Selectivity index, ratio of IC50 for cytotoxicity against African green monkey Vero cells to IC50 for antitrypanosomal activity against Trypanosoma brucei rhodesiense STI B900; format: toxicity, cell-based; conditions: read-out: Ratio IC50
Sorting guide: entries reporting selectivity ratio beneath 8 go in the T pile, the rest go in the F pile.

For orientation, consider the following solved cases.
CN1CCc2cc(-c3ccc4ccccc4c3)ccc2C1    F
CN1CCc2cc(Oc3ccc(-c4ccccc4)cc3)ccc2C1    F
CN1Cc2ccc(OCC3CCCCC3)cc2[C@@H](O)C1    F
CN1CCc2cc(OCc3ccccc3)ccc2C1    F

# TODO verify selectivity ratio < 8 strictly for this compound: OC1CNCc2c(OCCC3CCCCC3)cccc21 (configuration not stated)
F

# TODO verify selectivity ratio < 8 strictly for this compound: CN1Cc2ccc(OCc3ccc(Oc4ccc(F)cc4)cc3)cc2[C@@H](O)C1
T

# TODO verify selectivity ratio < 8 strictly for this compound: CN1Cc2ccc(OCCC3CCCCC3)cc2[C@@H](O)C1
F

# TODO verify selectivity ratio < 8 strictly for this compound: CC1(C)N=C(N)N=C(N)N1OCCCOc1cc(Cl)c(Cl)cc1Cl
F

# TODO verify selectivity ratio < 8 strictly for this compound: CN1Cc2ccc(OCc3ccc(-c4ccc(-c5ccccc5)cc4)cc3)cc2[C@@H](O)C1
T
